# Experimental Protocol: A549 lung cancer cell viability effects, profiling panel, resazurin fluorescence, 24 h, PK04 Diversity Set (AID 1171); further: test concentration not given here
# Test Context: higher = more signal, called active from +8 up or from −8 down
If the reported z-score equals or exceeds 0.2, assign Yes. If not, assign No.

Example cases with answers are listed next.
Prompt line: // inclusive: z-score at least 0.2? input: CC(C)C(=C=CC[C@@H](O)c1ccccc1OCCO)CCO
Response line: Yes

Prompt line: // inclusive: z-score at least 0.2? input: C=C(COC)/C(=C/C[C@H](OC(=O)c1ccncc1)c1ccc(OCCO)cc1)c1cnc2ccccc2c1
Response line: Yes

Prompt line: // inclusive: z-score at least 0.2? input: CC(C)C[C@H]1NC(=O)[C@@]23C(=O)N[C@@H](Cc4ccccc4)C2[C@H](C)[C@@]2(C)O[C@H]2C3/C=C/C/C=C\CNC(=O)[C@H](Cc2ccccc2)NC1=O (some centres not stated)
Response line: Yes

Prompt line: // inclusive: z-score at least 0.2? input: COCCOC(=O)N1C(=O)[C@@]2(c3cc(C#Cc4ccc(OC)cc4)ccc31)[C@H](c1ccccc1OCCO)N1[C@H](c3ccccc3)[C@H](c3ccccc3)OC(=O)[C@H]1[C@@H]2C(=O)N1CCN(c2ncccn2)CC1
Response line: No

Prompt line: // inclusive: z-score at least 0.2? input: CC(=O)NCCCC[C@@H]1NC(=O)[C@@H]2C[C@H](C(=O)NCCCCCCNC(=O)CS)[C@H](c3cccc(OCCO)c3)N2C1=O
Response line: No

Prompt line: // inclusive: z-score at least 0.2? input: CCN(CC)c1ccc(N2CC=CC34O[C@@H]5/C=C\CCC(C)OC(=O)C5[C@H]3C(=O)N(C(CO)C(C)C)[C@@H]4C2=O)cc1 (some centres not stated)
Response line: Yes

Could you now look at the following molecule, please?
Prompt line: // inclusive: z-score at least 0.2? input: [N-]=[N+]=Nc1ccccc1C[C@]1(C(N)=O)N=C(c2ccc(OCCCO)cc2)O[C@H]1c1ccccc1
Response line: Yes
